Tested on: NCI-H23
Assay: NCI tumour cell line growth inhibition, 48 h
The source made the active and inactive calls. Rule as the data show it: active = GI50 up to about 1.1 µM and inactive = higher.
GI50 values for the molecules below.

Cc1ccc(C2NC(=O)c3ccccc3N2)c(C)c1 (configuration not stated) ... 7.14 µM (inactive)

Exercise: # get_value(readout='GI50', item= CC1C(=O)CCC1C(Sc1ccccc1)(Sc1ccccc1)Sc1ccccc1 (configuration not stated) )
Solution: 22.5 µM (inactive)

Exercise: Endpoint output: GI50 of COC(OC)C1OC(CO)C(n2cc(F)c(=O)[nH]c2=O)C1O (configuration not stated) . Value?
Solution: > 100 µM (inactive)

Exercise: Looking for the measured GI50 of O=C1N/C(=N/N=C/c2c[nH]c3ccccc23)N/C1=C\c1c[nH]c2ccccc12 , can you help?
Solution: 18.2 µM (inactive)

Exercise: If you can, please state the reported GI50 value of Cc1cc2c(=O)c3ccc(Cl)cc3[nH]c2c(C(=O)O)c1C .
Solution: > 100 µM (inactive)

Exercise: Which GI50 reading was recorded for the molecule Cc1ccccc1N(CCC#N)C1=NN(C(=O)CC(=O)Nc2ccc(Cl)cc2)C(c2ccccc2)C1 (configuration not stated) ?
Solution: > 100 µM (inactive)

Exercise: Which GI50 value belongs to CC1=Nn2c(nc3sc4c(c3c2=O)CCCC4)SC1 ?
Solution: > 100 µM (inactive)

Exercise: State the recorded GI50 for this entry: O=c1[nH]nc(-c2ccccc2)n1-c1ccncc1
Solution: > 100 µM (inactive)

Exercise: Quick check: GI50 of O=C1C(C(c2ccc([N+](=O)[O-])cc2)N2CCOCC2)=C(O)C(c2ccccc2)N1c1ccccc1 (configuration not stated) ?
Solution: > 10 µM (inactive)

Exercise: Would you kindly share the measured GI50 for Cc1cc2nc3c(C#N)c4c(c(-c5ccc(Cl)cc5)n3c2cc1C)CCC4 ?
Solution: 19.1 µM (inactive)

Exercise: Given the molecule CC(=O)C1(O)CCC2(O)C3(O)CC=C4CC(O)CCC4(C)C3CC(OC(=O)c3ccc(O)cc3)C12C.COC1CC(OC2C(C)OC(OC3C(C)OC(OC4CCC5(C)C(=CCC6(O)C5CC(OC(=O)c5ccc(O)cc5)C5(C)C(O)(C(C)=O)CCC65O)C4)CC3OC)CC2OC)OC(C)C1O (configuration not stated) , what is its reported GI50?
Solution: 28.9 µM (inactive)

Exercise: Record request: GI50 value, item CC(C)OP(=O)(OC(C)C)/C(I)=N/Nc1ccc([N+](=O)[O-])cc1
Solution: > 100 µM (inactive)

---

# key: entry, value: GI50
Tested on: MOLT-4
Test: NCI tumour cell line growth inhibition, 48 h
Activity calls are given as the source filed them. Rule as the data show it: active = GI50 up to about 1.1 µM and inactive = higher.

Completed entries (count: 2):
O=C1C=CC=CC2CC=C[C@@H](O)C12 (stereo partly drawn) ... 20.9 µM (inactive)
O=C(O)c1ccc([N+](=O)[O-])c(P(=O)(O)O)c1 ... > 100 µM (inactive)

Exercise: Sample CN(C)CCCN1c2ccc([N+](=O)[O-])cc2CCc2cc([N+](=O)[O-])ccc21 — what was its GI50?
Solution: 14.5 µM (inactive)

---

Test system: SN12C
Assay: NCI tumour cell line growth inhibition, 48 h
Activity calls are given as the source filed them. Rule as the data show it: active = GI50 up to about 1.1 µM and inactive = higher. Where a SMILES comes first, the peptide text is derived from it. Bridges are numbered along the chain shown (N, C = ends). [ ]: non-standard residue; d: D form. The star is where a group is joined. ξ: configuration not given here. X28 = O=C(/C=C/C=C/C=C/C=C/C=C/C(=O)*)NC1=C(O)CCC1=O; NMeA = CN[C@@H](C)C(=O)O; ξF = NC(Cc1ccccc1)C(=O)O; ξA = CC(N)C(=O)O
measured-endpoint: GI50

Exercise: Look at this compound and give its reported GI50. C=CC1=CC(C)C[C@]1(O)C(=O)OC (stereo partly specified)
Solution: < 0.01 µM (active)

Exercise: For COC(=O)NC(=O)c1cn(CCCOC(=O)CCCCCCCCC(=O)OCCCn2cc(C(=O)NC(=O)OC)c(=O)[nH]c2=O)c(=O)[nH]c1=O , what is its reported GI50?
Solution: > 100 µM (inactive)

Exercise: Reported GI50 for CC1NC(=O)[C@H](C)N(C)C(=O)[C@@H]2CCCN2C(=O)[C@@H](NC(=O)C(Cc2ccccc2)NC(=O)/C=C/C=C/C=C/C=C/C=C/C(=O)NC2=C(O)CCC2=O)COC(=O)[C@@H]2CCCN2C1=O (stereo partly specified) (X28-[ξF]SP[NMeA][ξA]P; ester 2-C) : what is it?
Solution: > 100 µM (inactive)

Exercise: Given COc1ccc2c(c1)C(=O)[C@@](Nc1ccc(C=O)cc1)(OC)[C@@](OC)(c1ccc([N+](=O)[O-])cc1)O2 , state its recorded GI50.
Solution: > 10 µM (inactive)

Exercise: # get_value(readout='GI50', item= CC(=O)NC(CCCCNCc1ccccc1)C(=O)NCc1ccccc1 (stereo unspecified) )
Solution: > 100 µM (inactive)

Exercise: Which GI50 reading was recorded for the compound Cc1cc(O)nc(NNC(C#N)c2ccc([N+](=O)[O-])cc2)n1 (stereo unspecified) ?
Solution: > 100 µM (inactive)

Values compiled from ChEMBL document CHEMBL1201862.
